# Tested on: Japonica rice
# experimentSummary: Test E paddy water application plant response rating 0 to 100
# Type: in vivo, oryza sativa
# studyConditions: Rate 125 g/ha; Flood; 0 to 100 scale; approx. 21 days
Japonica 1 plant response rating reference
metric: Japonica 1 plant response rating

* C#CC(C)Oc1cc(-c2nn3c(c2Cl)CCCC3)c(F)cc1Cl (stereo not shown) | 25
* C#CC(C)N1C(=O)COc2cc(F)c(-c3nn4c(c3Cl)CCCC4)cc21 (stereo not shown) | 75
* C=C(Cl)COc1cc(-c2nn3c(c2Cl)CCCC3)c(F)cc1Cl | 20
* Fc1cc(Cl)ccc1-c1nn2c(c1Br)CCCC2 | 55

====

# System: johnsongrass
# experimentSummary: Test G preemergence/postemergence greenhouse plant response rating 0 to 100
# Type: in vivo, Sorghum halepense
# studyConditions: PREEMERGENCE, Rate 125 g/ha, 0 to 100 scale
# Source text: Seeds, rhizomes, or plant parts of alfalfa (Medicago ativa), annual bluegrass (Poa annua), bermudagrass (Cynodon dactylon), broadleaf signalgrass (Brachiaria plantaginea), common purslane (Portulaca oleracea), common ragweed (Ambrosia elatior), […] […] Untreated control plants and treated plants were placed in the greenhouse and visually evaluated for injury at 13 to 21 days after herbicide application. […]
Plant response rating, Johnsongrass reference
metric: Plant response rating, Johnsongrass

- C=CCN1C(=O)COc2cc(F)c(-c3nn4c(c3Cl)CCCC4)cc21 [Compound 33]: 0
- Fc1cc(Cl)c(OC2CCCC2)cc1-c1nn2c(c1Cl)CCCC2 [Compound 24]: 0
- CCCN1C(=O)COc2cc(F)c(-c3nn4c(c3Cl)CCCC4)cc21 [Compound 32]: 0
- Fc1cc(Cl)c(OCc2ccccc2)cc1-c1nn2c(c1Cl)CCCC2 [Compound 22]: 0

====

# Tested on: barnyardgrass
# experimentSummary: Test B preemergence/postemergence greenhouse plant response rating 0 to 10
# Type: in vivo, Echinochloa crus-galli
# studyConditions: Rate 200 g/ha, PREEMERGENCE; 0 to 10 scale
Plant response rating, Barnyardgrass reference
metric: Plant response rating, Barnyardgrass

• CCCOc1cc(-c2nn3c(c2Cl)CCCC3)c(F)cc1Cl = 6
• CCC(=O)Oc1cc(-c2nn3c(c2Cl)CCCC3)c(F)cc1Cl = 0
• C=CCOc1cc(-c2nn3c(c2Br)CCCC3)c(F)cc1Cl = 4
• CC(C)Oc1cc(-c2nn3c(c2Cl)CCCC3)c(F)cc1Cl = 7
• CCC(C)Oc1cc(-c2nn3c(c2Cl)CCCC3)c(F)cc1Cl (stereo not shown) = 3
• Clc1ccc(-c2nc3n(c2Cl)CCC=C3)c(Cl)c1 = 0
• Fc1cc(Cl)c(OC2CCCC2)cc1-c1nn2c(c1Cl)CCCC2 = 4

====

# System: blackgrass
# experimentSummary: Test C preemergence/postemergence greenhouse plant response rating 0 to 100
# Assay type: in vivo, Alopecurus myosuroides
# studyConditions: POSTEMERGENCE; Rate 4 g/ha
metric: Plant response rating (0 to 100), Blackgrass

• CCC(C)Oc1cc(-c2nn3c(c2Cl)CCCC3)c(F)cc1Cl (stereo not shown) = 20
• C#CC(C)Oc1cc(-c2nn3c(c2Br)CCCC3)c(F)cc1Cl (stereo not shown) = 20
• C#CCN1C(=O)COc2cc(F)c(-c3nn4c(c3Br)CCCC4)cc21 = 40
• C#CC(C)N1C(=O)COc2cc(F)c(-c3nn4c(c3Cl)CCCC4)cc21 (stereo not shown) = 30

====

Plant response rating, Wheat reference
# Test system: wheat
# experimentSummary: Test B preemergence/postemergence greenhouse plant response rating 0 to 10
# Format: in vivo, Triticum aestivum
# studyConditions: POSTEMERGENCE, Rate 50 g/ha; 0 to 10 scale
metric: Plant response rating, Wheat

* CCOC(=O)COc1cc(-c2nn3c(c2Cl)CCCC3)c(F)cc1Cl | 2
* COCOc1cc(-c2nn3c(c2Cl)CCCC3)c(F)cc1Cl | 7
* CC(C)N1C(=O)COc2cc(F)c(-c3nn4c(c3Cl)CCCC4)cc21 | 5
* CCCOc1cc(-c2nn3c(c2Cl)CCCC3)c(F)cc1Cl | 2
* Oc1cc(-c2nn3c(c2Br)CCCC3)c(F)cc1Cl | 3

====

# Test system: soybean
# experimentSummary: Test C preemergence/postemergence greenhouse plant response rating 0 to 100
# Type: in vivo, Glycine max
# studyConditions: Rate 16 g/ha; POSTEMERGENCE
Param threshold (50) applies to Plant response rating (0 to 100), Soybean; output Met when value >= threshold, Not met when value < threshold.

- CC(C)Oc1cc(-c2nn3c(c2Br)CCCC3)c(F)cc1Cl: Not met
- C#CCN1C(=O)COc2cc(F)c(-c3nn4c(c3Br)CCCC4)cc21: Met
- CC(C)N1C(=O)COc2cc(F)c(-c3nn4c(c3Cl)CCCC4)cc21: Met
- COC(=O)C(C)Oc1cc(-c2nn3c(c2Cl)CCCC3)c(F)cc1Cl (centres unmarked): Not met
- CCN1C(=O)COc2cc(F)c(-c3nn4c(c3Cl)CCCC4)cc21: Met
- CC(C)OC(=O)COc1cc(-c2nn3c(c2Cl)CCCC3)c(F)cc1Cl: Not met
- CCC(C)Oc1cc(-c2nn3c(c2Cl)CCCC3)c(F)cc1Cl (centres unmarked): Not met

====

# System: barley
# experimentSummary: Test B preemergence/postemergence greenhouse plant response rating 0 to 10
# Assay type: in vivo, Hordeum vulgare
# studyConditions: POSTEMERGENCE, Rate 50 g/ha; 0 to 10 scale
Plant response rating, Barley reference
metric: Plant response rating, Barley

• C=CCOc1cc(-c2nn3c(c2Cl)CCCC3)c(Cl)cc1Cl = 3
• C=CCN1C(=O)COc2cc(F)c(-c3nn4c(c3Br)CCCC4)cc21 = 5
• C#CC(C)Oc1cc(-c2nn3c(c2Cl)CCCC3)c(F)cc1Cl (stereo not drawn) = 5

====

# Test system: barley
# experimentSummary: Test C preemergence/postemergence greenhouse plant response rating 0 to 100
# Type: in vivo, Hordeum vulgare
# studyConditions: POSTEMERGENCE, 250 g/ha, 0 to 100 scale
metric: Plant response rating Barley Igri

- C#CC(C)N1C(=O)COc2cc(F)c(-c3nn4c(c3Cl)CCCC4)cc21 (stereo not shown): 50
- Fc1cc(Cl)c(OCCCl)cc1-c1nn2c(c1Cl)CCCC2: 60
- CC(C)OC(=O)c1cc(-c2nn3c(c2Cl)CCCC3)c(F)cc1Cl: 60
- COc1cc(-c2nn3c(c2Cl)CCCC3)c(F)cc1Cl: 90

====

# Test system: morningglory
# experimentSummary: Test B preemergence/postemergence greenhouse plant response rating 0 to 10
# Format: in vivo, Ipomoea hederacea
# studyConditions: POSTEMERGENCE, Rate 50 g/ha; 0 to 10 scale
Param threshold (9) applies to Plant response rating, Morningglory; output Satisfied when value >= threshold, Not satisfied when value < threshold.

• COC(=O)C(C)Oc1cc(-c2nn3c(c2Cl)CCCC3)c(F)cc1Cl (stereo not shown) = Not satisfied
• O=C1COc2cc(F)c(-c3nn4c(c3Br)CCCC4)cc2N1 = Satisfied
• CC(C)Oc1cc(-c2nn3c(c2Cl)CCCC3)c(Cl)cc1Cl = Not satisfied
• CC(C#N)Oc1cc(-c2nn3c(c2Cl)CCCC3)c(F)cc1Cl (stereo not shown) = Not satisfied
• C#CCN1C(=O)COc2cc(F)c(-c3nn4c(c3Cl)CCCC4)cc21 = Not satisfied
• Clc1ccc(-c2nc3n(c2Cl)CCC=C3)c(Cl)c1 = Not satisfied
• CC(C)OC(=O)COc1cc(-c2nn3c(c2Cl)CCCC3)c(F)cc1Cl = Not satisfied
• CC(C)Oc1cc(-c2nn3c(c2Cl)CCCC3)c(F)cc1Cl = Satisfied
• C=CCN1C(=O)COc2cc(F)c(-c3nn4c(c3Cl)CCCC4)cc21 = Satisfied
• COCCN1C(=O)COc2cc(F)c(-c3nn4c(c3Cl)CCCC4)cc21 = Satisfied
• COCOc1cc(-c2nn3c(c2Br)CCCC3)c(F)cc1Cl = Satisfied

====

# Tested on: corn
# experimentSummary: Test C preemergence/postemergence greenhouse plant response rating 0 to 100
# Type: in vivo, Zea mays
# studyConditions: Rate 4 g/ha; POSTEMERGENCE
Plant response rating (0 to 100), Corn reference
metric: Plant response rating (0 to 100), Corn

* C#CCN1C(=O)COc2cc(F)c(-c3nn4c(c3Cl)CCCC4)cc21 [Compound 34] | 30
* CCCN1C(=O)COc2cc(F)c(-c3nn4c(c3Cl)CCCC4)cc21 [Compound 32] | 30
* CC(C)N1C(=O)COc2cc(F)c(-c3nn4c(c3Cl)CCCC4)cc21 [Compound 31] | 30
* COc1cc(-c2nn3c(c2Cl)CCCC3)c(F)cc1Cl [Compound 29] | 20
* C=CCN1C(=O)COc2cc(F)c(-c3nn4c(c3Cl)CCCC4)cc21 [Compound 33] | 30

Recorded values, source patent US6358885B1.
